Every entry's value here was drawn from patent US20130053541A1.

- TARGET_DESC: T1, native human ESRRG protein (Estrogen-receptor related receptor gamma) (human, UniProt P62508 229-458, limits assumed)
- T1 construct: the screened protein is called 'native human ESRRG protein'; also called ESSRG; ERRγ
- T1 sequence (looked up): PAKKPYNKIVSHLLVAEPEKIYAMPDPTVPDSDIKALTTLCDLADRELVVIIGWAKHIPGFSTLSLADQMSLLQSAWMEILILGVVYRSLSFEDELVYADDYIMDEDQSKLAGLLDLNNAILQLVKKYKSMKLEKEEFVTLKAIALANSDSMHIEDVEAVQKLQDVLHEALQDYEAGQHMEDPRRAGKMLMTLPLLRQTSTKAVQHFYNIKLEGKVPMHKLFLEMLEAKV
- ASSAY_NOTES: peptide microarray, Iteration 1; bound ESRRG detected with fluorescent anti-ESRRG mAb
Where no end group is shown, it is not given here.
Could you please report measured log2 (Sample B/Sample A) for the items listed next?
The answer should be written as a number, with no unit following it.

QUERY: Using known records, supply log2 (Sample B/Sample A) for Ac-NSLLQHLL
RESULT: 12

QUERY: Using known records, supply log2 (Sample B/Sample A) for Ac-AANYLLLL
RESULT: 7.4

QUERY: Using known records, supply log2 (Sample B/Sample A) for Ac-AIRGHLMG
RESULT: 5.63

QUERY: Using known records, supply log2 (Sample B/Sample A) for Ac-ANNIWLLH
RESULT: 5.05

QUERY: Using known records, supply log2 (Sample B/Sample A) for Ac-ANNFLLLH
RESULT: 5.13

QUERY: Using known records, supply log2 (Sample B/Sample A) for Ac-ANNSKLLH
RESULT: 5.42

QUERY: Using known records, supply log2 (Sample B/Sample A) for Ac-AANMSLLL
RESULT: 6.16

QUERY: Using known records, supply log2 (Sample B/Sample A) for Ac-RKAIFGKY
RESULT: 5.11

QUERY: Using known records, supply log2 (Sample B/Sample A) for Ac-ANNLWLLH
RESULT: 5.26

QUERY: Using known records, supply log2 (Sample B/Sample A) for Ac-NSLSWHLL
RESULT: 5.34

QUERY: Using known records, supply log2 (Sample B/Sample A) for Ac-NSLRQHLL
RESULT: 6.08

QUERY: Using known records, supply log2 (Sample B/Sample A) for Ac-KSLLQQLL
RESULT: 6.38

QUERY: Using known records, supply log2 (Sample B/Sample A) for Ac-NIKVNANN
RESULT: 7.62

QUERY: Using known records, supply log2 (Sample B/Sample A) for Ac-NSLRKHLL
RESULT: 5.36

QUERY: Using known records, supply log2 (Sample B/Sample A) for Ac-ANNLQLLH
RESULT: 5.03

QUERY: Using known records, supply log2 (Sample B/Sample A) for Ac-AANYVLLL
RESULT: 7.22

QUERY: Using known records, supply log2 (Sample B/Sample A) for Ac-ANNSSLLH
RESULT: 7.29

QUERY: Using known records, supply log2 (Sample B/Sample A) for Ac-IKQNHNNS
RESULT: 9.63

QUERY: Using known records, supply log2 (Sample B/Sample A) for Ac-LLHLQKSQ
RESULT: 5.64

QUERY: Using known records, supply log2 (Sample B/Sample A) for Ac-LLHSSKSQ
RESULT: 5.4

QUERY: Using known records, supply log2 (Sample B/Sample A) for Ac-LHLRYSQT
RESULT: 4.86

QUERY: Using known records, supply log2 (Sample B/Sample A) for Ac-ANNLKLLH
RESULT: 4.88
